- ASSAY DETAILS: Ratio of drug uptake in tumor to blood in C57BL/6J mouse implanted with mouse B16F0 cells at 3.7 MBq, iv measured at 72 hrs post injection
- Assay type: ADME, organism-based
Kp at 72 h for assorted compounds
RESULT TYPE: Kp at 72 h

[
  {
    "SMILES STRUCTURE": "O=c1[nH]c(=O)n([C@H]2C[C@H](O)[C@@H](CO)O2)cc1[125I]",
    "RESULT TYPE": "Kp at 72 h",
    "TEST RESULT": 14.4
  },
  {
    "SMILES STRUCTURE": "CCN(CC)CCNC(=O)c1cnc2cc(NC(=O)COc3ccc(SSCCOC(=O)O[C@H]4C[C@H](n5cc([125I])c(=O)[nH]c5=O)O[C@@H]4CO)cc3)ccc2n1",
    "RESULT TYPE": "Kp at 72 h",
    "TEST RESULT": 1.12
  }
]

Source listed as ChEMBL document CHEMBL3856199.
